Origin of measurements: paper PMC9482650

- system-tested: FRMPD3, Q5JV73
- Sequence (Q5JV73 12-100): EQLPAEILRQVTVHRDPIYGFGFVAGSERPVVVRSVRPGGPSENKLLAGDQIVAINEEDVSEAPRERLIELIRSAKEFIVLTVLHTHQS
- assay-remarks: holdup assay
- Set-up: key: below the threshold = too weak to quantify, mostly under pKd 3.1 to 4
- condition-notes: plain residues with an end cap or a label only (N-terminal biotin on a linker: ado-ado)
assay-readout: pKd

Use these answered entries as a reference point.
[[record]]
binder = "KKAPTNEFYA [SDC4, P31431]"
assay_readout = "pKd"
reported_measurement = 3.84

[[record]]
binder = "PRAEAEDSFL [PDGFRB, P09619]"
assay_readout = "pKd"
reported_measurement = 3.56

[[record]]
binder = "IKAIVDLTGL [TRAF2, Q12933]"
assay_readout = "pKd"
reported_measurement = "below the threshold"

[[record]]
binder = "NHSSSPETTA [TRMT13, Q9NUP7]"
assay_readout = "pKd"
reported_measurement = "below the threshold"

[[record]]
binder = "QSPANIYYKV [EFNB1, P52799]"
assay_readout = "pKd"
reported_measurement = "below the threshold"


// query pKd value for entry LPHPHSTTRV [NLGN2, Q8NFZ4] below the threshold

Please do the same for VYPNAKVELV [PDLIM4_iso2, P50479;P50479-1] as well. below the threshold

Moving on to LRSPRTPSEV [OR10G3, Q8NGC4] below the threshold
